Origin of values: PubChem BioAssay

biological target: E3 ubiquitin-protein ligase XIAP (Homo sapiens); test: XIAP binders, primary screen, biophysical, small-molecule microarray, fluorescence 635 nm (AID 1181); settings: small-molecule microarray binding, higher = more signal
Tick TRUE if composite z-score is -0.02 or greater. Tick FALSE if composite z-score is less than -0.02.

*Q* Hi team, for CCCCC(=C=CC[C@@H](O)c1ccc(OCCO)cc1)C[C@@H](O)COCc1ccccc1 , is the recorded composite z-score at or above -0.02?
*A* TRUE

*Q* Hi team, for COc1ccc(NC(=O)O[C@H]2[C@H](OC(=O)Nc3ccc4c(c3)OCO4)[C@@H](OC(=O)Nc3ccc4c(c3)OCO4)[C@@H](OC)O[C@@H]2CO)cc1 , is the recorded composite z-score at or above -0.02?
*A* FALSE

*Q* Hi team, for CO[C@H]1O[C@H](CO)[C@@H](OC(=O)Nc2ccc(Oc3ccccc3)cc2)[C@H](OC(=O)Nc2ccccc2-c2ccccc2)[C@@H]1OC(=O)Nc1ccccc1-c1ccccc1 , is the recorded composite z-score at or above -0.02?
*A* FALSE

*Q* Hi team, for C=CC[C@@]12N=C(c3ccc(OCCCO)cc3)O[C@@H]1c1ccccc1N(CCS(=O)(=O)c1ccccc1)C2=O , is the recorded composite z-score at or above -0.02?
*A* TRUE

*Q* Hi team, for CCOc1cc(C(O)C2C=CC3C(=O)N(C4CCCCC4)C(=O)C3N2Nc2ccc(OC)cc2)ccc1O (stereo unspecified) , is the recorded composite z-score at or above -0.02?
*A* TRUE

*Q* Hi team, for O=C1NC(=O)C2C1C=CC(C(O)c1ccc(Br)cc1)N2Nc1ccccn1 (stereo unspecified) , is the recorded composite z-score at or above -0.02?
*A* TRUE

*Q* Hi team, for COCCOC(=O)N1C(=O)[C@@]2(c3cc(C#CC4=CCCCC4)ccc31)[C@H](C(=O)N1CCN(c3ncccn3)CC1)[C@H]1C(=O)O[C@H](c3ccccc3)[C@H](c3ccccc3)N1[C@@H]2c1ccc(O)cc1 , is the recorded composite z-score at or above -0.02?
*A* TRUE

*Q* Hi team, for CC[C@@H]1[C@H]2C3C(=O)N(CC)C(=O)C3CC(=O)[C@H]2[C@H](c2ccc(C)cc2)N1S(=O)(=O)c1ccc(C)cc1 (stereo partly specified) , is the recorded composite z-score at or above -0.02?
*A* FALSE

*Q* Hi team, for CC(C)(C)OC(=O)CC[C@@]1(C(=O)O)N=C(c2ccc(OCCCO)cc2)O[C@@H]1c1ccccc1CN=[N+]=[N-] , is the recorded composite z-score at or above -0.02?
*A* TRUE

*Q* Hi team, for C=CCN1C(=O)[C@@]2(O[C@@H](CCn3cc([C@H](O)c4ccccc4)nn3)[C@H]([Si](C)(C)c3ccc(OC)cc3)[C@H]2C)c2ccccc21 , is the recorded composite z-score at or above -0.02?
*A* TRUE

*Q* Hi team, for C=CCC(OC(C)=O)[C@@H]1[C@@H](N(Cc2cc3ccccc3o2)C(=O)Cc2ccc(F)cc2)c2cc(OCCCO)ccc2N1C(=O)c1ccc2ccccc2n1 (stereo partly specified) , is the recorded composite z-score at or above -0.02?
*A* FALSE

*Q* Hi team, for CC(=O)n1cc(C(O)C2C=CC3C(=O)N(c4ccccc4)C(=O)C3N2Nc2ccccc2)c2ccccc21 (stereo unspecified) , is the recorded composite z-score at or above -0.02?
*A* TRUE

*Q* Hi team, for C=C(C(=O)CC[C@H](OC(C)=O)c1cccc(OCCO)c1)C(C)C , is the recorded composite z-score at or above -0.02?
*A* TRUE

*Q* Hi team, for C[N+](C)(C)CCCC[C@@H]1NC(=O)[C@@H]2C[C@H](C(=O)O)[C@H](c3ccc(O)cc3)N2C1=O , is the recorded composite z-score at or above -0.02?
*A* FALSE

*Q* Hi team, for O=C1C[C@@](C(=O)NCC(F)(F)F)(c2ccc([N+](=O)[O-])cc2)[C@@H](c2ccc(CO)cc2)N1C1CCCCC1 , is the recorded composite z-score at or above -0.02?
*A* FALSE

*Q* Hi team, for Cc1ccc(C(C)CC(O)C2C=CC3C(=O)N(c4ccccc4)C(=O)C3N2Nc2ccc(C(C)C)cc2)o1 (stereo unspecified) , is the recorded composite z-score at or above -0.02?
*A* FALSE
